target: T1, HLA-A0301 (human); assay: stabilization assay on Raji HLA-A0301 cells
T1 construct: MHC class I molecule on Raji HLA-A0301 cells

| binder | binding result |
| --- | --- |
| FMCAYPGCNK [A3WT-1 C (native)] | binds |
| QMYLGVTLK [A3WT-1 B3 (ANALOGUE)] | binds |
| NMHQRNMTK [A3 WT-1 A (native)] | binds |
| FMYAYPFCNK [A3 WT-1 C3 (ANALOGUE)] | binds |
| NMYQRNMTK [A3 WT-1 A1 (ANALOGUE)] | binds |
| QMNLGVTLK [A3WT-1 B2 (ANALOGUE)] | binds |
| FMYAYPGCNK [A3WT-1 C1 (ANALOGUE)] | binds |
| QMNLGATLK [A3 WT-1 B (native)] | binds |

Reference for the values: patent US20100111986A1
